# System: NCI/ADR-RES ovarian
# assay.info: NCI-60 one-dose screen, 48 h (100 = growth as untreated, 0 = no growth, -100 = all killed)
# test.parameters: 10 µM unless noted
About 83,000 compounds went through this panel and 20% of them were active in at least one assay; those are over-represented in the sample as a whole.
Here the recorded growth is given for each entry.
value.kind: growth (%)

molecule	experimental.target	value.kind	reading
OCCNC1CCCCC1	NCI/ADR-RES ovarian	growth	115
CN1CCC2(CC1)C(C#N)C(=O)NC(=O)C2C#N (centres undefined)	NCI/ADR-RES ovarian	growth	113
Oc1ccccc1C=NCCN=Cc1ccccc1O	NCI/ADR-RES ovarian	growth	103
CO[C@@H]([CH2][Hg][O]C(=O)c1ccccc1)[C@@H]([CH2][Hg][O]C(=O)c1ccccc1)OC	NCI/ADR-RES ovarian	growth	105

###

Collected growth values appear next to each entry.
# System: HOP-62 NSCLC
# assay.info: NCI-60 one-dose screen, 48 h (100 = growth as untreated, 0 = no growth, -100 = all killed)
# test.parameters: 10 µM unless noted
# Procedure: Growth inhibition of the HOP-62 human Non-Small Cell Lung tumor cell line is measured as a screen for anti-cancer activity. Cells are grown in 96 well plates and exposed to the test compound for 48 hours. Compounds are tested at a single concentration, which is 10^-5 M for most compounds. The reported endpoint is percent growth (GI% or GIPRCNT), where numbers from 0 - 100% represent growth inhibition, and numbers from -100% - 0 represent cell death. […]
This is part of a sample that, as a whole, favours compounds with a hit. Of some 83,000 tested, about 20% had one in any assay.
value.kind: growth (%)

compound	value.kind	reading
COC(=O)C1=CO[C@@H](C)[C@@H]2CN3CCc4c([nH]c5cc(OC)ccc45)[C@@H]3C[C@H]12	growth	113
C/C(=C\c1ccn(-c2ccc(N)c(C(F)(F)F)c2)n1)[C@@H]1C[C@@H]2O[C@]2(C)CCC[C@H](C)[C@H](O)[C@@H](C)C(=O)C(C)(C)[C@@H](O)CC(=O)O1	growth	41
O=c1c2ccccc2nc(-c2ccccc2Cl)n1-c1nnc(C(F)(F)F)s1	growth	58.7
C[C@]12CC[C@H](O)C[C@@H]1CC[C@@H]1[C@@H]2CC[C@]2(C)OC(=O)CC[C@@H]12	growth	97.3
CCC(=O)C(CC(C)N1CCCCCC1)(c1ccccc1)c1ccccc1 (stereo not drawn)	growth	85.6
C=CC1CN2CCC1CC2C(O)c1ccnc2ccccc12 (stereo not drawn)	growth	121
O=[N+]([O-])c1cc(Cl)c(Cl)c([N+](=O)[O-])c1Cl	growth	119
Cc1ccc(N2CCN(CCC#N)CC2)cc1	growth	93.6
O=C(NC(Cl)=C(Cl)Cl)P(=O)(c1ccccc1)c1ccccc1	growth	104
COC(=O)C12C3C4C1C1C2C3C41NC(=O)c1csc([C@@H](C[C@H](C(C)C)N(C)C(=O)[C@@H](NC(=O)[C@H]2CCCCN2C)C2CC2)OC(C)=O)n1 (stereo partly drawn)	growth	4.51
C[N+]1(C)CCCC1c1cccnc1 (stereo not drawn)	growth	101
CC1(C)C=Cc2c(ccc3c2[N+]([O-])=C2C3=C[C@@]34NC(=O)[C@]5(CCCN5C3=O)C[C@@H]4C2(C)C)O1	growth	54.5
C/C(=N/OC(=O)N(C)C)c1ccc(Cl)c(Cl)c1	growth	107

###

# Test system: HS 578T breast
# assay.info: NCI-60 one-dose screen, 48 h
# test.parameters: 10 µM unless noted
The panel holds about 83,000 compounds, 20% with a hit somewhere; the sample as a whole holds those more often. Active and inactive are the calls of the source. How the source made its calls: active means growth percent below 10; inactive means the rest.
Possible outcomes: active, inactive

molecule	discrete.label
Cc1ccc(P(=O)(O)O)cc1	inactive
C/C(=C\c1ccn(-c2ccc(N)c(C(F)(F)F)c2)n1)[C@@H]1C[C@@H]2O[C@]2(C)CCC[C@H](C)[C@H](O)[C@@H](C)C(=O)C(C)(C)[C@@H](O)CC(=O)O1	inactive
CC1(C)N=C(N)N=C(N)N1c1ccc(CCC(=O)Nc2ccc(S(=O)(=O)F)cc2)cc1	inactive
N[C@@H](CCC(=O)CCl)C(=O)O	inactive
N#CCC(=O)c1ccccc1	inactive
CC[C@H](C)[C@H](NC(=O)CN(C)C)C(=O)N(C)[C@H](C[C@@H](OC(C)=O)c1nc(C(=O)NC23CC(C(=O)OC)(C2)C3)cs1)C(C)C	inactive
COc1cc(C=C2C(=O)NC(=O)NC2=O)ccc1O	inactive
O=C1CN2CCC1CC2	inactive
C(=NC1CCCCC1)=NC1CCCCC1	inactive
CCCC(C)SP(=S)(SC(C)CCC)SC(C)CCC (stereo not drawn)	inactive
O=S(=O)(c1ccc(O)cc1)c1ccccc1O	inactive
COC12CC3(C)C(C4=CC(=O)OC4)CCC3(O)C3CCC4=CC(=O)CCC4(CO1)C32 (stereo not drawn)	inactive
CN1[C@@H](CC(=O)c2ccccc2)CCC[C@H]1CC(=O)c1ccccc1	inactive
C=CC1CN2CCC1CC2C(O)c1ccnc2ccccc12 (stereo not drawn)	inactive
CCC1(NC(=O)c2cc(F)c(F)c(F)c2F)C(=O)NC(=O)N(C(C)C)C1=O (stereo not drawn)	inactive
O=[N+]([O-])c1cc(Cl)c(Cl)cc1Cl	inactive
CC1=CC(=O)CCC12CCOC2=O (stereo not drawn)	inactive
CC(=O)c1cccc(S(=O)(=O)F)c1	inactive
N#CCN(CC#N)[N+](=O)[O-]	inactive
Clc1ccc(COC(Cn2ccnc2)c2ccc(Cl)cc2Cl)c(Cl)c1 (stereo not drawn)	inactive
CCCCOC(N)=O	inactive
C[C@H](O)CCC(=O)c1ccoc1	inactive
CCC(=O)C(CC(C)N1CCCCCC1)(c1ccccc1)c1ccccc1 (stereo not drawn)	inactive
Oc1ccccc1C=NCCN=Cc1ccccc1O	inactive
O=S1(=O)OCCO1	inactive
CC1=C(C)C(=O)O[C@@H]([C@](C)(O)[C@]2(O)CC[C@@]3(O)[C@@H]4C[C@H]5O[C@]56CC=CC(=O)[C@]6(C)[C@H]4CC[C@]23C)C1	active
O=C(O)C(Br)CBr (stereo not drawn)	inactive
Cc1cc[c-]cc1.Fc1c[c-]c(-c2ccccn2)c(F)c1.[Pt+2].c1ccc([PH+](c2ccccc2)c2ccccn2)cc1	inactive
Cc1ccc(N2CCN(CCC#N)CC2)cc1	inactive
O=c1c2ccccc2nc(-c2ccccc2Cl)n1-c1nnc(C(F)(F)F)s1	inactive
CCC1(CCSC#N)C(=O)NC(=O)NC1=O	inactive
CC1OC(=O)C(C(C)C)NC(=O)C(C(C)C)OC(=O)C(C(C)C)NC(=O)C(C)OC(=O)C(C(C)C)NC(=O)C(C(C)C)OC(=O)C(C(C)C)NC(=O)C(C)OC(=O)C(C(C)C)NC(=O)C(C(C)C)OC(=O)C(C(C)C)NC1=O (stereo not drawn)	active
N#CCCc1ccccc1	inactive
COc1ccc(N)cc1N	inactive
CCN(CC)CCn1c(=O)n(C)c2ccccc21	inactive
C=CC[PH+](c1ccccc1)c1ccccc1.C=CC[PH+](c1ccccc1)c1ccccc1.[Pt+2].[S-]c1ncccn1.[S-]c1ncccn1	inactive
O=[N+]([O-])c1ccc(CI)cc1	inactive
O=C1NC(=O)C(=C/C=C/c2ccccc2)C(=O)N1	inactive
CC12CCC3C4CCC(=O)C=C4CCC3C1CC1CC(=O)OC12 (stereo not drawn)	inactive
CCOP(=O)(NC)OCC	inactive
O=C=Nc1ccc(Br)cc1	inactive
COc1ccc(N(CC(=O)NCCC[Te]c2ccccc2)C(=O)c2ccccc2)cc1	inactive
O=C(Cc1ccccc1)NC(O)C(Cl)(Cl)Cl (stereo not drawn)	inactive

###

# Tested on: SNB-75 CNS
# assay.info: NCI-60 one-dose screen, 48 h (100 = growth as untreated, 0 = no growth, -100 = all killed)
# test.parameters: 10 µM unless noted
Compounds without any hit were thinned out: in the full panel of roughly 83,000, 20% have a hit.
Classes based on growth: I (below 60%), II (60% to below 90%), III (90% or more)

molecule	discrete.label
CN1CCN(c2ccc(Cl)cc2)CC1	III
COc1cc(C=C2C(=O)NC(=O)NC2=O)ccc1O	III
Cc1ccc(N2CCN(CCC#N)CC2)cc1	II
CC[C@H](C)[C@H](NC(=O)c1cnccn1)C(=O)N(C)[C@H](C[C@@H](OC(C)=O)c1nc(C(=O)N[C@@H](Cc2ccccc2)C[C@H](C)C(=O)OC)cs1)C(C)C	I
CCCC(C)SP(=S)(SC(C)CCC)SC(C)CCC (centres undefined)	III
C[C@@]12CCCc3coc(c31)C(=O)c1cc3c(cc12)C(=O)C1=C(NCCS1(=O)=O)C3=O	I
O=P1(N(CCCl)CCCl)NCCCO1 (centres undefined)	III
COC(=O)[C@@H](C)C[C@H](Cc1ccccc1)NC(=O)c1cccc([C@@H](C[C@H](C(C)C)N(C)C(=O)[C@@H](NC(=O)[C@H]2CCCCN2C)C2CC2)OC(C)=O)n1	I
COC1C(O)CC(OC2CC(Oc3cc4cc5c(c(O)c4c(O)c3C)C(=O)[C@@H](OC3CC(OC4CC(OC6CC(C)(O)C(OC(C)=O)C(C)O6)C(O)C(C)O4)C(O)C(C)O3)[C@H]([C@H](OC)C(=O)[C@@H](O)[C@@H](C)O)C5)OC(C)C2OC(C)=O)OC1C (some centres undefined)	I
CN1C2CCC1[C@@H](COC(=O)c1ccccc1)[C@@H](O)C2 (some centres undefined)	II
Cc1cc[c-]cc1.Fc1c[c-]c(-c2ccccn2)c(F)c1.N#CCC[PH+](CCC#N)c1ccccc1.[Pt+2]	I
CNC(=O)Oc1ccc(Cl)cc1SSc1cc(Cl)ccc1OC(=O)NC	II
Cc1c2ccncc2c(C)c2c1[nH]c1ccccc12	I
N#CC(NC(=O)CCl)=C(Cl)Cl	II
COc1cc2c(cc1OC)-c1c3c(cc4c1[C@@H](C2)N(C)CC4)OCO3	I
O=[N+]([O-])c1cc(Br)c(O)c(Br)c1	III
COC12CC3C4=CCOC5CC(=O)N6c7ccccc7C1(CCN2C4)C6C53 (centres undefined)	II
COc1cc(-c2ccc(N)c(OC)c2)ccc1N	II
CC/C(=C(\c1ccc(OCCN2CCOCC2)cc1)c1ccc(OC(=O)Cc2ccccc2)cc1)c1ccc(Cl)cc1	III
Cc1cc(NC(=O)NCCCOc2ccc(N3C(N)=NC(N)=NC3(C)C)cc2Cl)ccc1S(=O)(=O)F	I
CO[C@@H]([CH2][Hg][O]C(=O)c1ccccc1)[C@@H]([CH2][Hg][O]C(=O)c1ccccc1)OC	II
CCOP(=O)(OCC)C(=O)N(CC)CC	III
C/C(=C\c1ccn(-c2ccc(N)cc2F)n1)[C@@H]1C[C@@H]2O[C@]2(C)CCC[C@H](C)[C@H](O)[C@@H](C)C(=O)C(C)(C)[C@@H](O)CC(=O)O1	I
